Reported folding stability dG values follow for various variants
B1: 2M8U (parent)
chain: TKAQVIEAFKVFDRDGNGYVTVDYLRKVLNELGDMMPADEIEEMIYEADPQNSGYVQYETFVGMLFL

variants of: B1; test: folding stability dG (cDNA display proteolysis); higher = more stable; conditions: PBS, room temperature
Form entry: value (kcal/mol) — number only.

Field: example entries. Status: answers known.
I45V ... 3
Q4Y ... 2.97
M35S ... 3.07

Please fill in: folding stability dG reported for "L25V" = 3.01

Please fill in: folding stability dG reported for "N17G" = 2.96

Please fill in: folding stability dG reported for "N17F" = 3.06
